Taken from ChEMBL document CHEMBL1156261.

- Tgt: Pyruvate kinase PKM (Homo sapiens)
- Sequence (P14618 2-531 limits assumed): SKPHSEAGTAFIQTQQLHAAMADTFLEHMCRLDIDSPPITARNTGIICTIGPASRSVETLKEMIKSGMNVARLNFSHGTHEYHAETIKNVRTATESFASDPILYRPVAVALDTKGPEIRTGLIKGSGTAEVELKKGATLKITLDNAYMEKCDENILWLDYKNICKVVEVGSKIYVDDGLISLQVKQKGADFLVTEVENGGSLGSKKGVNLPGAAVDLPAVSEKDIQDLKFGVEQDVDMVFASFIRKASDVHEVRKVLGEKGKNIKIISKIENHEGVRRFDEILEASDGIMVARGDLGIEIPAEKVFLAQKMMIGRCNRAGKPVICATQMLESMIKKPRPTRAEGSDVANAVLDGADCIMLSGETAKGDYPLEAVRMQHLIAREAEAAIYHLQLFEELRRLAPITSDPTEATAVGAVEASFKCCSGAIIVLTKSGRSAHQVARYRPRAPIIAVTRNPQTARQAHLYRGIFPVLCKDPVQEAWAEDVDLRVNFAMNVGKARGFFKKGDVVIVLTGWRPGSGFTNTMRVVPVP
- Protocol Notes: Activation of PKM2 assessed as ATP product formation at 57 uM by luminescent pyruvate kinase-luciferase coupled assay relative to fructose-1,6-bis-phosphate
Reported Metric: Activity
Please answer using a numeric value trailed by its unit.

Recorded results for 3 compounds are shown here.
[
  {
    "Compound String": "O=S(=O)(c1ccc2c(c1)OCCO2)N1CCN(S(=O)(=O)c2cccc[n+]2[O-])CC1",
    "Activity": "81.5%"
  },
  {
    "Compound String": "O=S(=O)(c1ccc2c(c1)OCCO2)N1CCCN(S(=O)(=O)c2c(F)cccc2F)CC1",
    "Activity": "120%"
  },
  {
    "Compound String": "O=S(=O)(c1ccc2c(c1)OCCO2)N1CCN(S(=O)(=O)c2c(F)ccc(O)c2F)CC1",
    "Activity": "95.3%"
  }
]

# Activity (compound: "O=C1CN(S(=O)(=O)c2c(F)cccc2F)CCN1S(=O)(=O)c1ccc2c(c1)OCCO2" ) is 105%

# Activity (compound: "N#Cc1ccc(S(=O)(=O)N2CCN(S(=O)(=O)c3ccc4c(c3)OCCO4)CC2)cc1" ) is 44.1%
